- Test: Therapeutic index, ratio of CC50 for human CEM cells expressing green fluorescent protein to IC50 for HIV1 NL4.3
- Assay type: cell-based, CCRF-CEM
- Particulars: read-out: TI
Metric: selectivity ratio
No unit in the answer, only the number.

Output measured selectivity ratio for this item: "COC(=O)c1cc2c([nH]c3ccccc32)c(C=O)n1"
7

* * *

- Test: Cytotoxicity against human CEM cells expressing green fluorescent protein assessed as oncytotoxic concentration by MTT assay
- Type: cell-based, CCRF-CEM
- Particulars: read-out: Activity
Note to self: MNTC under 4 µM means satisfied, ties and anything higher get not satisfied.

Molecule	Qualitative label
COC(=O)C1Cc2c([nH]c3ccccc23)C(C)=N1 (stereo unspecified)	not satisfied
Cc1nc(C(=O)N2CCCCC2)cc2c1[nH]c1ccccc12	satisfied
Cc1nc(C(=O)N2CCSCC2)cc2c3ccccc3n(Cc3ccccc3)c12	not satisfied
COC(=O)c1cc2c3ccccc3n(Cc3ccccc3)c2c(C)n1	not satisfied

Lab note: confirm whether the reported MNTC for this molecule is below 4 µM, equality not counting. molecule: "Cc1nc(C(=O)N2CCSCC2)cc2c1[nH]c1ccccc12"
satisfied

Could you please tell me whether MNTC recorded for "CCCn1c2ccccc2c2cc(C(=O)OC)nc(C)c21" is less than 4 µM?
satisfied

* * *

- System: Human immunodeficiency virus 1
- Test: Antiviral activity against HIV1 NL4.3 infected in human CEM-GFP cells assessed as inhibition p24 antigen production at non cytotoxic concentration after 8 days by ELISA
- Type: functional
# label = criterion met if inhibition (INH) >= 20% else criterion not met

See these solved cases before continuing.
Molecule	Test system	Qualitative label
Cc1nc(C(=O)N2CCSCC2)cc2c1[nH]c1ccccc12	Human immunodeficiency virus 1	criterion not met
COC(=O)c1cc2c([nH]c3ccccc32)c(C)n1	Human immunodeficiency virus 1	criterion met
CC1=NC(C(=O)O)Cc2c1[nH]c1ccccc21 (stereo not given)	Human immunodeficiency virus 1	criterion not met

Could you tell me if the measured inhibition (INH) of COC(=O)C1Cc2c([nH]c3ccccc23)C(C)=N1 (stereo not given) reaches 20% or more?
criterion not met

Has CCCCC1(C(=O)OC)Cc2c([nH]c3ccccc23)C(C)=N1 (stereo not given) a recorded inhibition (INH) greater than or equal to 20%?
criterion not met

* * *

- Test: Cytotoxicity against human CEM cells expressing green fluorescent protein assessed as oncytotoxic concentration by MTT assay
- Type: cell-based, CCRF-CEM
- Particulars: read-out: Activity
Listed below: MNTC values for each entry.
// return numeric value only (unit: µM, not printed)

Past entries and their recorded results:
Compound	Metric	Value observed
CC1=NC(C(=O)O)Cc2c1[nH]c1ccccc21 (centres undefined)	MNTC	17.5
COC(=O)c1cc2c([nH]c3ccccc32)c(C=O)n1	MNTC	9.83
Cc1nc(C(=O)N2CCSCC2)cc2c3ccccc3n(Cc3ccc(F)cc3)c12	MNTC	23.8
Cc1nc(C(=O)N2CCOCC2)cc2c1[nH]c1ccccc12	MNTC	27.1
CCCCn1c2ccccc2c2cc(C(=O)N3CCSCC3)nc(C)c21	MNTC	1.36

Quickly give me recorded MNTC for "COC(=O)c1cc2c3ccccc3n3c(=O)ccc(n1)c23"
3.59

Annotate the compound CCCCn1c2c(c3ccccc31)CC(CCCC)(C(=O)OC)N=C2C (centres undefined) with its measured MNTC.
14.1

Please supply the value of reported MNTC for the item "CCn1c2ccccc2c2cc(C(=O)OC)nc(C)c21"
3.73

Return value of MNTC for input "COC(=O)c1cc2c([nH]c3ccccc32)c(C)n1" , no commentary.
4.17

Find the measured MNTC of CCCCC1(C(=O)OC)Cc2c([nH]c3ccccc23)C(C)=N1 (centres undefined) and report it.
8.39

Complete the entry with MNTC for "CC(C)=CCn1c2ccccc2c2cc(C(=O)N3CCSCC3)nc(C)c21"
19.8

Report MNTC, nothing else, for this compound: "CCCCn1c2ccccc2c2cc(C(=O)OC)nc(C)c21"
1.69

Identify MNTC associated with the compound "COC(=O)c1cc2c3ccccc3n(C)c2c(C)n1"
19.7

Please give the documented MNTC of "C#CCn1c2ccccc2c2cc(C(=O)N3CCSCC3)nc(C)c21"
21.5
